- protocol-summary: Pharmacokinetic evaluation after intravenous or gavage administration to dogs
- Format: in vivo, Beagle dogs
- recorded-conditions: beagle, dog, plasma, intravenous, i.v group, 2.5 mg/kg
Catalogue of MRT inf values
Write the answer as a number in h, unit excluded.

| molecule | value-kind | data-value |
| --- | --- | --- |
| CONC(=O)Nc1ccc(-c2sc3c(c2CN(C)C)c(=O)n(-c2ccc(-n4cccn4)nc2)c(=O)n3Cc2c(F)cccc2F)cc1 [Example 3] | MRT inf | 13.2 |

Now for the molecule whose MRT inf we want.
Kindly note the recorded MRT inf for CONC(=O)Nc1ccc(-c2sc3c(c2CN(C)C)c(=O)n(-c2ccc(-n4nccn4)cn2)c(=O)n3Cc2c(F)cccc2F)cc1 [Example 2] , which is 5.59

---

- protocol-summary: Pharmacokinetic evaluation after intravenous or gavage administration to rats
- Format: in vivo, SD rats
- recorded-conditions: Sprague-Dawley (SD), rat, plasma, po, i.g group, 5 mg/kg
- Procedure: The pharmacokinetics of the compound of the invention in rats and/or dogs were evaluated herein, the animal information was listed in Table B. The compound of the present invention was administered to the animal subjects in the form of 10% DMSO+10% Kolliphor HS15+78% Saline+2% (2% HCl) solution or 78% Saline+2% (2% HCl)+20% PEG400 solution. Before administration, the animals were fasted for 12 hours but water was freely allowed. […]
Each record here notes measured half-life.
The reply should be a number in h, with the unit left off.

| item-smiles | half-life / h |
| --- | --- |
| CONC(=O)Nc1ccc(-c2sc3c(c2CN(C)C)c(=O)n(-c2ccc(-n4nccn4)cn2)c(=O)n3Cc2c(F)cccc2F)cc1 | 1.91 |

We next turn to a different compound, shown below.
Entry CONC(=O)Nc1ccc(-c2sc3c(c2CN(C)C)c(=O)n(-c2ccc(-n4cccn4)nc2)c(=O)n3Cc2c(F)cccc2F)cc1 , half-life reported as 4.43

---

AUC(0-inf) values by entry
- protocol-summary: Pharmacokinetic evaluation after intravenous or gavage administration to rats
- Type: in vivo, SD rats
- recorded-conditions: Sprague-Dawley (SD), rat, plasma, po, i.g group, 5 mg/kg
Use ng·h/mL as the unit, but write only the number.

| compound | AUC(0-inf) (ng·h/mL) |
| --- | --- |
| CONC(=O)Nc1ccc(-c2sc3c(c2CN(C)C)c(=O)n(-c2ccc(-n4nccn4)cn2)c(=O)n3Cc2c(F)cccc2F)cc1 [Example 2] | 529 |

Lab note: next compound to report on.
For reference, reported AUC(0-inf) for CONC(=O)Nc1ccc(-c2sc3c(c2CN(C)C)c(=O)n(-c2ccc(-n4cccn4)nc2)c(=O)n3Cc2c(F)cccc2F)cc1 [Example 3] stands at 1750

---

Documented Cmax across a set of molecules
- protocol-summary: Pharmacokinetic evaluation after intravenous or gavage administration to rats
- Assay type: in vivo, SD rats
- recorded-conditions: Sprague-Dawley (SD), rat, plasma, iv, i.v group, 1 mg/kg
Your answer is read as ng/mL, so omit the unit and give the number.

| item-smiles | Cmax, ng/mL |
| --- | --- |
| CONC(=O)Nc1ccc(-c2sc3c(c2CN(C)C)c(=O)n(-c2ccc(-n4cccn4)nc2)c(=O)n3Cc2c(F)cccc2F)cc1 | 151 |

Next molecule, please.
Quick note, Cmax for CONC(=O)Nc1ccc(-c2sc3c(c2CN(C)C)c(=O)n(-c2ccc(-n4nccn4)cn2)c(=O)n3Cc2c(F)cccc2F)cc1 landed at 352
